Test system: PC-12
Test: Induction of NGF-mediated neutrite outgrowth of rat PC12 cells after 96 hrs by phase contrast microscopic analysis
Format: functional, cell-based
Conditions: PC-12, 96 h
Assay endpoint: EC50 (µM)
Return type: number; implicit unit µM.

Consider the compound CC(C)=CCC[C@](C)(O)[C@H]1CC[C@@]2(C)[C@@H]3CC=C4[C@@H](C[C@H](O)C(=O)C4(C)C)[C@]3(C)C(=O)C[C@]12C and give its measured EC50.
10

Follow-up entry: C=CC(=C)CC[C@]1(C)[C@H](C)C[C@H](OC)[C@@]23C(=C[C@@H](O)C[C@@H]12)[C@@H](OC)O[C@H]3OC
5.4

###

I'd be grateful if you could share measured EC50 for these entries.
System: PC-12
Test: Induction of NGF-mediated neutrite outgrowth of rat PC12 cells after 96 hrs by phase contrast microscopic analysis
Type: functional, cell-based
Conditions: PC-12, 96 h
Return type: number; implicit unit µM.

So what EC50 did C=CC(=C)CC[C@]1(C)[C@H](C)C[C@H](OC)[C@@]23C(=C[C@H](O)C[C@@H]12)[C@@H](OC)O[C@@H]3OC(C)=O get with PC-12?
2.9

Follow-up entry: C=CC(=C)CC[C@]1(C)[C@H](C)C[C@H](OC)[C@@]23C(=C[C@@H](O)C[C@@H]12)[C@@H](OC)O[C@H]3OC(C)=O
8.3

Follow-up entry: C=CC(=C)CC[C@]1(C)[C@H](C)C[C@H](OC)[C@@]23C(=C[C@@H](OC(C)=O)C[C@@H]12)[C@@H](OC(=O)CCC)O[C@@H]3OC(C)=O
5.2

###

Test system: PC-12
Assay: Induction of NGF-mediated neutrite outgrowth of rat PC12 cells after 96 hrs by phase contrast microscopic analysis
Assay type: functional, cell-based
Settings: PC-12, 96 h
Assay endpoint: EC50

Consider the compound CC(C)(O)/C=C/C(=O)[C@](C)(O)[C@H]1CC[C@@]2(C)[C@@H]3CC=C4[C@@H](C[C@H](O)C(=O)C4(C)C)[C@]3(C)C(=O)C[C@]12C and give its measured EC50.
> 50 µM

Follow-up entry: C=C(C)[C@@H](C)C[C@@H](O)[C@@H](C)[C@H]1CC[C@@]2(C)[C@@H]3CCC4=C(C[C@]35O[C@@H]5C[C@]12C)C(=O)C[C@H](O)C4(C)C
> 50 µM

Follow-up entry: CC(C)=CCC[C@](C)(O)[C@H]1CC[C@@]2(C)[C@@H]3CC=C4[C@@H](CCC(=O)C4(C)C)[C@]3(C)C(=O)C[C@]12C
> 50 µM
